# Protocol Text: Ex vivo biodistribution in NCI-H727 tumor-bearing mice
# Run Conditions: female, BALB/c nude, mouse, in vivo, 1.48 MBq, total radioactivity, Biodistribution, Tumor (tumor uptake)
Measure Name: tissue uptake at 1 h (%ID/g)
Report only the number, with the unit %ID/g understood.

Query C[C@@H](O)[C@H](NC(=O)[C@@H]1CSSC[C@H](NC(=O)[C@@H](Cc2ccccc2)NC(=O)CN2CCN(CC(=O)O)CCN(CC(=O)O)CCN(CC(=O)O)CC2)C(=O)N[C@@H](Cc2ccc(O)cc2)C(=O)N[C@H](Cc2c[nH]c3ccccc23)C(=O)N[C@@H](CCCCN)C(=O)N[C@@H]([C@@H](C)O)C(=O)N1)C(=O)O [[^68Ga]Ga-DOTA-TATE, metal not drawn, reference compound] yields tissue uptake at 1 h of 1.57

* * *

# Protocol Text: Ex vivo biodistribution in NCI-H727 tumor-bearing mice
# Run Conditions: female, BALB/c nude, mouse, in vivo, 1.48 MBq, total radioactivity, Biodistribution, Blood
Measure Name: tissue uptake at 1 h (%ID/g)
Report only the number, with the unit %ID/g understood.

Query C[C@@H](O)[C@H](NC(=O)[C@@H]1CSSC[C@H](NC(=O)[C@@H](Cc2ccccc2)NC(=O)CN2CCN(CC(=O)O)CCN(CC(=O)O)CCN(CC(=O)O)CC2)C(=O)N[C@@H](Cc2ccc(O)cc2)C(=O)N[C@H](Cc2c[nH]c3ccccc23)C(=O)N[C@@H](CCCCN)C(=O)N[C@@H]([C@@H](C)O)C(=O)N1)C(=O)O [[^68Ga]Ga-DOTA-TATE, metal not drawn, reference compound] yields tissue uptake at 1 h of 0.42

* * *

# Protocol Text: Ex vivo biodistribution in NCI-H727 tumor-bearing mice
# Run Conditions: female, BALB/c nude, mouse, in vivo, 1.48 MBq, total radioactivity, Biodistribution, Kidney
Measure Name: tissue uptake at 1 h (%ID/g)
Report only the number, with the unit %ID/g understood.

Query C[C@@H](O)[C@H](NC(=O)[C@@H]1CSSC[C@H](NC(=O)[C@@H](Cc2ccccc2)NC(=O)CN2CCN(CC(=O)O)CCN(CC(=O)O)CCN(CC(=O)O)CC2)C(=O)N[C@@H](Cc2ccc(O)cc2)C(=O)N[C@H](Cc2c[nH]c3ccccc23)C(=O)N[C@@H](CCCCN)C(=O)N[C@@H]([C@@H](C)O)C(=O)N1)C(=O)O [[^68Ga]Ga-DOTA-TATE, metal not drawn, reference compound] yields tissue uptake at 1 h of 9.18

* * *

# Protocol Text: Partition coefficient (log P), n-octanol/PBS
# Type: physicochemical
# Run Conditions: pH 7.4
Measure Name: logD
Hey, just send me the number, nothing else.

Query C[C@@H](O)[C@H](NC(=O)[C@@H]1CSSC[C@H](NC(=O)[C@@H](Cc2ccccc2)NC(=O)CN2CCN(CC(=O)O)CCN(CC(=O)O)CCN(CC(=O)O)CC2)C(=O)N[C@@H](Cc2ccc(O)cc2)C(=O)N[C@H](Cc2c[nH]c3ccccc23)C(=O)N[C@@H](CCCCN)C(=O)N[C@@H]([C@@H](C)O)C(=O)N1)C(=O)O [[^68Ga]Ga-DOTA-TATE, metal not drawn, reference compound] yields logD of -3.02

* * *

# Protocol Text: Ex vivo biodistribution in NCI-H727 tumor-bearing mice
# Run Conditions: female, BALB/c nude, mouse, in vivo, 1.48 MBq, total radioactivity, Biodistribution, Brain
Measure Name: tissue uptake at 1 h
A bare number is not enough; add the unit after it.

Query C[C@@H](O)[C@H](NC(=O)[C@@H]1CSSC[C@H](NC(=O)[C@@H](Cc2ccccc2)NC(=O)CN2CCN(CC(=O)O)CCN(CC(=O)O)CCN(CC(=O)O)CC2)C(=O)N[C@@H](Cc2ccc(O)cc2)C(=O)N[C@H](Cc2c[nH]c3ccccc23)C(=O)N[C@@H](CCCCN)C(=O)N[C@@H]([C@@H](C)O)C(=O)N1)C(=O)O [[^68Ga]Ga-DOTA-TATE, metal not drawn, reference compound] yields tissue uptake at 1 h of 0.03 %ID/g

* * *

# Protocol Text: Ex vivo biodistribution in NCI-H727 tumor-bearing mice
# Run Conditions: female, BALB/c nude, mouse, in vivo, 1.48 MBq, total radioactivity, Biodistribution, Heart
Measure Name: tissue uptake at 1 h
A bare number is not enough; add the unit after it.

Query C[C@@H](O)[C@H](NC(=O)[C@@H]1CSSC[C@H](NC(=O)[C@@H](Cc2ccccc2)NC(=O)CN2CCN(CC(=O)O)CCN(CC(=O)O)CCN(CC(=O)O)CC2)C(=O)N[C@@H](Cc2ccc(O)cc2)C(=O)N[C@H](Cc2c[nH]c3ccccc23)C(=O)N[C@@H](CCCCN)C(=O)N[C@@H]([C@@H](C)O)C(=O)N1)C(=O)O [[^68Ga]Ga-DOTA-TATE, metal not drawn, reference compound] yields tissue uptake at 1 h of 0.23 %ID/g

Data provenance is paper PMC11677724.
